Parameter phosphorylation enrichment: see the listing below.
Target: FGFR1 (UniProt P11362)
Sequence (P11362 whole entry, looked up): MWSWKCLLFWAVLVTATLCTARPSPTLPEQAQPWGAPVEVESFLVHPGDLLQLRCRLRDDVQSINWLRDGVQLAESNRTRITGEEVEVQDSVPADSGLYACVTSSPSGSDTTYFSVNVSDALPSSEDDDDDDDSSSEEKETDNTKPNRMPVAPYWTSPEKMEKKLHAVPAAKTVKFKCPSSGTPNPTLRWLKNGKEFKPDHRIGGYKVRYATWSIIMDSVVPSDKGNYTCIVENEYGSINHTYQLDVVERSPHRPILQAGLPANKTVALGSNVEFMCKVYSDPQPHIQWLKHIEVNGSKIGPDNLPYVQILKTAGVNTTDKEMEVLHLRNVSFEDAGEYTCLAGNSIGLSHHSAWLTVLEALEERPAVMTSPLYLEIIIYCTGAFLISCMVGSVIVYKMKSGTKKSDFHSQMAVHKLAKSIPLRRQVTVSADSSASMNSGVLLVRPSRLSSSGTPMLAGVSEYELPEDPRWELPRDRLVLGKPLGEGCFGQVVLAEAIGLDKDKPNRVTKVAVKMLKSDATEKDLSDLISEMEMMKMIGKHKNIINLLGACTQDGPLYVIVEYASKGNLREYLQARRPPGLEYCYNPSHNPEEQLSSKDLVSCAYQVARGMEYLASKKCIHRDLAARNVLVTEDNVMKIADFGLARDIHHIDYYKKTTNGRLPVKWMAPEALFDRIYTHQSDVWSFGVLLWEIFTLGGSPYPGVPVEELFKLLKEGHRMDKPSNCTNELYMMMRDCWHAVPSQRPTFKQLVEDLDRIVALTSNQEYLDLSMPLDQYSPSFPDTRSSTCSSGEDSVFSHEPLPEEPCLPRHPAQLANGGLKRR
Assay: phosphorylation enrichment, bacterial display (enrichment ratio); higher = better substrate or ligand; peptides without Tyr show the background;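 also: 11-residue human phosphosite peptides and single-mutation variants displayed on the E. coli surface, counted by deep sequencing, each peptide's frequency after selection divided by its frequency in the unselected input library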;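 also: frequency after pTyr selection over input frequency; kinase dosed for 20-30% of maximal phosphorylation in three min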
When you answer, write just the number.

Answered cases to consult:
SFLFRYADDSF [RAB3C_Y50] : 0.475
DVFRQYASLTG [GANAB_Y379] : 0.395
KQLFAYKMLMA [TMC2_Y209_YF] : 0.548
LYSDHYSPSGR [TMPRSS12_Y23] : 1.14
ALEQKYWALGQ [MAP1A_Y1555] : 0.674
QWRTKYEMDAI [MYH7_Y1375_T1377M] : 0.58
LAAAGYDVKKN [H1-3_Y72_E75K] : 0.383
LLILEYAKFGS [RET_Y806_V804L_YF] : 0.85

Which phosphorylation enrichment is reported with FGFR1 (UniProt P11362) for this entry: GLAKEYTDPET [CSNK1G2_Y195_I196T] ?
0.323

Moving on to the next sequence: GIMEEYQLPFF [BMPR1A_Y453_V450M_YF]
1.7

Further, for ADFFDYGRGLS [KHDRBS3_Y304_H306R_YF] ?
0.414

Can you handle LLGFLYFFVCS [SLC34A2_Y109] next?
1.03

Query APQFTYAQGGQ [FLNA_Y1763_YF] next
0.585

Input AAGGRYYGLVG [HARS1_Y363_D364Y]
0.432

###

Target: MERTK (UniProt Q12866)
Sequence (Q12866 whole entry, looked up): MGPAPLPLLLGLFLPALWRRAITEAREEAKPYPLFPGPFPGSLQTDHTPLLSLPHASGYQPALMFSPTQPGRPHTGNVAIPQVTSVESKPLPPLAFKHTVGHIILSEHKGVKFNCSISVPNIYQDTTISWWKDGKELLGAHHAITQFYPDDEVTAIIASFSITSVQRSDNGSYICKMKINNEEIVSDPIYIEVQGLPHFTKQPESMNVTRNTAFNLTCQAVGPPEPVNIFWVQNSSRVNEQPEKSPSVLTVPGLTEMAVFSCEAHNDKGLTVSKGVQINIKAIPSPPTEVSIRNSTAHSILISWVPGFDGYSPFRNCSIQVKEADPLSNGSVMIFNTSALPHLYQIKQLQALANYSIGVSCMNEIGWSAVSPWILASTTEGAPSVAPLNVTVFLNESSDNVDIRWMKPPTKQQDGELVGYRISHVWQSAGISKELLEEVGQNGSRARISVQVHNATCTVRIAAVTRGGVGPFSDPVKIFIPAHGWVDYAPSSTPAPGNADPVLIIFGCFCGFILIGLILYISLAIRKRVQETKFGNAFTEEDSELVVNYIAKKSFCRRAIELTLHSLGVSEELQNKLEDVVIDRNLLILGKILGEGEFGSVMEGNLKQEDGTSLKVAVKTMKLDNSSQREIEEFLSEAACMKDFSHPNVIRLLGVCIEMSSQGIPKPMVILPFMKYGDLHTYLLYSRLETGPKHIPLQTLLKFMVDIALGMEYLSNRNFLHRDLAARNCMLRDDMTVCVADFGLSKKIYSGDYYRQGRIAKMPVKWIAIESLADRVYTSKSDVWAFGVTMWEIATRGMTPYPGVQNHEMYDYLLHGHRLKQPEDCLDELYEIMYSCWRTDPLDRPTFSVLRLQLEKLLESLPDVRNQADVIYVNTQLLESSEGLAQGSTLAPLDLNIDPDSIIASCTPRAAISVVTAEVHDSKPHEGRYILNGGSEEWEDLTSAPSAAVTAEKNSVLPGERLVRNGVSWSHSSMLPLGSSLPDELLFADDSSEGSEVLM
Assay: phosphorylation enrichment, bacterial display (enrichment ratio); higher = better substrate or ligand; peptides without Tyr show the background
Categorized via phosphorylation enrichment: low (below 0.4), moderate (0.4 to below 0.5), high (0.5 or more)

Illustrative cases are given below, each with its answer.
RRFSSYSQMEN [PKP1_Y120] : high
FSQNIYIQNRN [PKP2_Y631_YF] : low
LSDGPYSSPFE [EPOR_Y485_N487S_YF] : high

Band of RFVTRSIFNRE [HLA-DQB1_Y62_Y62S_YF] ?
high

Subsequent entry: LRYDVYGGENE [STOX1_Y610_E608D]
high

Another sequence: PEACDYGLGGG [GSTO1_Y239]
high

Same lookup for GEHSIYSTVNN [CD55_Y266_C267S] , please.
high

Okay, and RRLEPYGENFN [APOA4_Y310_V307L] ?
low

Note, next up: SSKILYHIIKG [CDH17_Y489]
high

Thanks! And FADIAYSYRHG [PAH_Y166_N167S] ?
moderate

Record: SDPIVYTLENI [EMR1_Y534_I533V]
high

Now consider LYDPDYMKVIL [CYP4A22_Y104] and answer again.
high

Query LRFEVYGGENE [STOX1_Y610_YF] next
moderate

Request: WFPSTYVEEDE [VAV3_Y842]
moderate

Same again, this time with KHMADYPDYKY [SOX11_Y113]
low

Ok, now RQGKDYVGAIP [KDR_Y951]
moderate

Now consider GAMGHYVLAER [HFE_Y342] .
moderate

What about this sequence? DRLTVYIDRVR [LMNA_Y45_A43T]
low

And what about the sequence QKKPRYEIRWK [PDGFRB_Y562] ?
high

Next sequence: RIGRKYKKVRF [F8_Y442]
low

How about KSSDVYVSFDC [SORL1_Y136_Y141C_YF] ?
high

Next sequence up: IFCIQYNICAF [MYH4_Y820_R823C]
moderate

###

As shown below, each of these sequences has a reported phosphorylation enrichment value.
Target: Fes (UniProt P07332)
Sequence (P07332 whole entry, looked up): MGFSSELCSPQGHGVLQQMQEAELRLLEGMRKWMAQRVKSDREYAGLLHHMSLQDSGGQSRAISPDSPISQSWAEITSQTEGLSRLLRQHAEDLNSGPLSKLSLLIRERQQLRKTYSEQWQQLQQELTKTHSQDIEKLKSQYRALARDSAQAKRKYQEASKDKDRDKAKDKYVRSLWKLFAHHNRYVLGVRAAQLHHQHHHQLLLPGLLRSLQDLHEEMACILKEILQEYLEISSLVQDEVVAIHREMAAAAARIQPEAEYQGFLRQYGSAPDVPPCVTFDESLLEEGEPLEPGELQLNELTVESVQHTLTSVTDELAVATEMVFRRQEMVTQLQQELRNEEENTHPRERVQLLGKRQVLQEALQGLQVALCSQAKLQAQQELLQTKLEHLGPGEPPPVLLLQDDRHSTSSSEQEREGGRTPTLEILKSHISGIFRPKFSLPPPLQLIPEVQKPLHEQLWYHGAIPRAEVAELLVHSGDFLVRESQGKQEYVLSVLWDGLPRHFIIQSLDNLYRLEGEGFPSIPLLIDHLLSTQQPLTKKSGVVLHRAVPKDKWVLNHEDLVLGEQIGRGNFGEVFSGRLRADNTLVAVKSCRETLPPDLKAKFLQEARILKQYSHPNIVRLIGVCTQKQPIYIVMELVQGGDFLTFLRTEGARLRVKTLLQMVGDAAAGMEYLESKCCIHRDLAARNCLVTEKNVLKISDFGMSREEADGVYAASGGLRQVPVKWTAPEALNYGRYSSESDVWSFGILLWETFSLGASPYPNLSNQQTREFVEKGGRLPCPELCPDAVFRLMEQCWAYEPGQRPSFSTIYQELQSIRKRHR
Test: phosphorylation enrichment, bacterial display (enrichment ratio); higher = better substrate or ligand; peptides without Tyr show the background

Some sequences with known phosphorylation enrichment results, for comparison:
FVPAAYVKKLD [SPTAN1_Y1020] : 0.89
VDDQIYFFRKP [PBRM1_Y1289_E1287Q_YF] : 1.55
SQKRKYIEIDS [SDAD1_Y580] : 0.614
SQSPHYFRSGR [GPATCH8_Y1038] : 0.819
TRTEAYAVSSF : 0.816

# get_value(readout='phosphorylation enrichment', item= KLFFHYNPKLC [INSR_Y457] )
1.41

Also check GQDLLYEDEDL [PACS1_Y303_F302L]
1.43

What do you get for SREALYNETDP [CACNA1A_Y794_M797T] ?
1.37

Could you do the same for VFGVSYDEYRY [CFTR_Y512_I507V] , please?
0.959

One more sequence: FAFQLYDLDPD [CHP2_Y123_R127P_YF]
1.26

And the next one, EVVGGYSVHNA [MLH1_Y183_R182G] ?
0.729

Ok, now KLPFPYDDPFS [GPX2_Y127_YF]
1.11

One more sequence: WPQKLYNNFVN [MYO5C_Y526_L522P]
0.884

# repeat for NKEPRYQEDPP [TJP2_Y479]
0.999

What would you report for DVFRQYASLTG [GANAB_Y379] ?
0.709

Repeat with DVAKEYGHLLP [HRC_Y99_S96A]
0.822

Also LLKAKYELLNA [POLR3A_Y714] , if possible.
0.614

// query: TVINKYQGKLF [HGD_Y249]
0.596

Same question, FSCLPYRRLAY [SLC52A2_Y305_G306R] this time
0.671

Follow-up item: RTEAQYRFIFM [PTPN11_Y511_Q506R_YF]
1.23

Next record, please: EESSHYSTEKE [ADAR_Y587]
1.47

Also RNPLRYTSILT [OR51B6_Y130_S126N] ?
0.794

###

Target: FGFR3 (UniProt P22607)
Sequence (P22607 whole entry, looked up): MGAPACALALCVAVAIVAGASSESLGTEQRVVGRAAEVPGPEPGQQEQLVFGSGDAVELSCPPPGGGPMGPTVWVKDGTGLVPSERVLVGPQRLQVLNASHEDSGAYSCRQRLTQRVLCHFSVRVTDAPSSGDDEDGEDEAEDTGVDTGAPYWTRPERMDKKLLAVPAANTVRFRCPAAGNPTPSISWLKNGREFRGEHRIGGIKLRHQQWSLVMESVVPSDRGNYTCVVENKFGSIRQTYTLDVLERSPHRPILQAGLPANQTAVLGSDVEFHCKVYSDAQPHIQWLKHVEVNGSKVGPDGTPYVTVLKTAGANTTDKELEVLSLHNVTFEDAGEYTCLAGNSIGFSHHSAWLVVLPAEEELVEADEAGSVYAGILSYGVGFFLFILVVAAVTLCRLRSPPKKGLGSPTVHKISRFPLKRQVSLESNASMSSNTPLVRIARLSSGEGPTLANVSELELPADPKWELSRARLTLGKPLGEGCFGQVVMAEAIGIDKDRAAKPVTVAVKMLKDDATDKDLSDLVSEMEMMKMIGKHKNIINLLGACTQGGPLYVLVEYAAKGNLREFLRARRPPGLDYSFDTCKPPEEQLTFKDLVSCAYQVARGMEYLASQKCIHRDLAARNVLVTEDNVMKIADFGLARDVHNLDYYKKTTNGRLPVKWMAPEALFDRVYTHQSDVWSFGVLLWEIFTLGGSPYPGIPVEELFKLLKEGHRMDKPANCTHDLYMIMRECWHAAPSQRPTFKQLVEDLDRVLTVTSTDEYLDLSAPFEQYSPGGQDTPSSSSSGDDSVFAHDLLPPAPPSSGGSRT
Assay: phosphorylation enrichment, bacterial display (enrichment ratio); higher = better substrate or ligand; peptides without Tyr show the background
Could you label it rule met if measured phosphorylation enrichment is 0.6 or higher, and rule not met otherwise?

ALAHKHHGGGG [HBB_Y146_Y146H] : rule not met
IEKLPYIDKWF [CPS1_Y872_T871P] : rule not met
TTSQLYDAMPI [PDPK1_Y9_V12M] : rule met
LSGFGYRLSDQ [PDCD6_Y124] : rule met
TGDFGYRTPGF [TNS2_Y668_A670T_YF] : rule not met
GDFSRYDEGSG [RECQL5_Y484] : rule met
AAVDTYCRHNF [HLA-DRB1_Y107_YF] : rule met
FAFQLYDLDRD [CHP2_Y123_YF] : rule met
EMTAEYACTRK [ACAD9_Y325] : rule not met
IDGLEYLHSPG [STK11_Y166_Q170P] : rule not met

API: above_or_equal(metric=phosphorylation enrichment, cutoff=0.6) for item CETMEYLESKQ [BTK_Y511_A508T]
rule met

Check STEAIYRRYSK [SH3PXD2B_Y42] too.
rule not met

Follow-up item: NTFENYWPFFQ [GATM_Y103_K102N_YF]
rule met

###

The reader will find reported phosphorylation enrichment values listed item by item below.
Target: MERTK (UniProt Q12866)
Test: phosphorylation enrichment, bacterial display (enrichment ratio); higher = better substrate or ligand; peptides without Tyr show the background
Format: numeric value only, no unit, no commentary.

Here is how some sequences turned out for phosphorylation enrichment.
CNSFQYGGGGG [NPPA_Y151_R150Q] : 0.447
HYGNNYTDVLQ [MACC1_Y803_R804T] : 0.935
HFVDEYDLTIE [KRAS_Y32_P34L] : 0.812
FLAVGYHKTHI [IDS_Y225_P228T] : 0.441
RHCSGYVLIAM [EFR3A_Y73_R70C] : 0.268
TQPSPYAVFRF [RPGRIP1_Y823_YF] : 9.69

In the following, a different sequence is considered.
// phosphorylation enrichment lookup, key: CITIHYNFMCN [TP53_Y234_T230I_YF]
0.456

###

# key: entry, value: phosphorylation enrichment
Molecular target: MERTK (UniProt Q12866)
Assay: phosphorylation enrichment, bacterial display (enrichment ratio); higher = better substrate or ligand; peptides without Tyr show the background
Enter a number only.

Answered cases to consult:
KTVQDYLEKFF [MMP8_Y36_YF] : 0.514
NTFENYWPFFQ [GATM_Y103_K102N_YF] : 5.46
GFSDPYVKASL [SYT3_Y470] : 0.391

Name the reported phosphorylation enrichment value associated with the sequence GMEIVYVYVKK [DNAI2_Y5]
0.416

# iterate: LLILEYAKFGS [RET_Y806_V804L_YF]
0.585

And what about the sequence GQDLLYEDEDL [PACS1_Y303_F302L] ?
0.595

What do you have for GDEEDYEEIPG [EGFR_opt_E_2015] ?
0.498

// query: VSVVDYVEPSP [TXNRD2_Y70_A66S]
0.485

Repeat for the following sequence: EKSREYDRLYE [PIK3R1_Y463]
0.597

Consider next the sequence KVGNEYVTKGQ [MYH7_Y410] in the same way.
0.332

Follow-up entry: DLGIQYKVLKP [CTNNA1_Y177_A179V]
0.413
